Taken from the supplement of paper PMC11208160.

- PROCEDURE_TEXT: recombinant barcode read abundance after kanamycin selection (control-corrected) (log10(CPM+1)); higher = more efficient recombination; sequences stand for … in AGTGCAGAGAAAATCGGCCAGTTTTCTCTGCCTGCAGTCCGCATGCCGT…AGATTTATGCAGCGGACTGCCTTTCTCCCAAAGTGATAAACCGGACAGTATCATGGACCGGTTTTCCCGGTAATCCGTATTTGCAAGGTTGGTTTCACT; site = the 11-nt target
Hi there, I'd appreciate the recorded recombinant barcode read abundance (log10) for every entry that follows.
Form: value (number only, do not type unit).

The sequence listed as TATGTAGCTTGGGTTCTAACCTGTTGCCA (site TATGTAGCTCG) shows recombinant barcode read abundance (log10) equal to 0.0344

The reported recombinant barcode read abundance (log10) of the sequence CTTGAATCTTGGGTTCTAACCTGTTGCCT (site CTTCAATCTAG) was 0.0867

So for GAACCTACTTGGGTTCTAACCTGTTGCGA (site GAACCTACTTC) , the logged recombinant barcode read abundance (log10) turned out to be 1.87

Short answer for TTGTAAGCTTGGGTTCTAACCTGTTGCCG (site TTGTGAGCTCC) : recombinant barcode read abundance (log10) was 0.441

The value of recombinant barcode read abundance (log10) measured for the sequence ACCTTACCTTGGGTTCTAACCTGTTGCGG (site ACCTTACCTCC) turned out to be 0.617

---

- PROCEDURE_TEXT: recombinant UMI read abundance after kanamycin selection (control-corrected) (log10(CPM+1)); higher = more efficient recombination; extreme values may be limits of the assay; sequences stand for … in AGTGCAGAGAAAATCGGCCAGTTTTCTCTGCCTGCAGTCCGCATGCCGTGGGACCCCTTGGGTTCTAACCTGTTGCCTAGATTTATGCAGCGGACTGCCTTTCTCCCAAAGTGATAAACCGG…AGGTTGGTTTCACT; site = the 11-nt donor
Could you label it class 1 if measured recombinant UMI read abundance (log10) is 0.008 or higher, and class 0 otherwise?

I'd appreciate it if you could say whether CGATCCCCATGGACCGGTTTTCCCGGTAATCCGTATTTGGG (site CGATCCCCTCC) has recombinant UMI read abundance (log10) at least equal to 0.008.
class 1

Assess whether reported recombinant UMI read abundance (log10) for AACAAACCATGGACCGGTTTTCCCGGTAATCCGTATTTGGT (site GACAAACCTAC) sits at 0.008 or higher.
class 0

Is recombinant UMI read abundance (log10) for GCGATGCCATGGACCGGTTTTCCCGGTAATCCGTATTTGGG (site GCGAAGCCTCC) at or above 0.008?
class 1

hey, is recombinant UMI read abundance (log10) for this one >= 0.008? ACTAGTGCATGGACCGGTTTTCCCGGTAATCCGTATTTGAT (site ACTAGTGCTAC)
class 1

Form field: recombinant UMI read abundance (log10) at least 0.008? Entry: ACACATCCATGGACCGGTTTTCCCGGTAATCCGTATTTGAT (site ACACATCCTCT)
class 1

State whether the measured recombinant UMI read abundance (log10) reaches 0.008, counting equality as reaching it, for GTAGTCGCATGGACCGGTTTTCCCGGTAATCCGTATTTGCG (site GTATTCGCTCG)
class 1

Reported recombinant UMI read abundance (log10) reaches at least 0.008 for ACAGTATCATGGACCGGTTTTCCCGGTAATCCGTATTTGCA (site ACAGTGTCTTT) ?
class 1

Tell me whether recombinant UMI read abundance (log10) is at least 0.008 here: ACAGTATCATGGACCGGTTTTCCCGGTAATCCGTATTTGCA (site ACAGGACCTTG)
class 0

Quick check: does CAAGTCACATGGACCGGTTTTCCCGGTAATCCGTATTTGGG (site AAAGTCACTCC) have recombinant UMI read abundance (log10) greater than or equal to 0.008?
class 1

---

What recombinant UMI read abundance (log10) was measured for each of the following?
- PROCEDURE_TEXT: recombinant UMI read abundance after kanamycin selection (control-corrected) (log10(CPM+1)); higher = more efficient recombination; extreme values may be limits of the assay; sequences stand for … in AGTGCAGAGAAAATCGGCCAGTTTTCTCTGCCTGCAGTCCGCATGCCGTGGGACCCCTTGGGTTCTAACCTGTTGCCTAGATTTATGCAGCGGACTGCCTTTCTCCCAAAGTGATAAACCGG…AGGTTGGTTTCACT; site = the 11-nt donor

Sample TGCAAGGCATGGACCGGTTTTCCCGGTAATCCGTATTTGGT (site TGCCAGGCTAC) ; recombinant UMI read abundance (log10) observed: 0.0164

Entry CACTAGGCATGGACCGGTTTTCCCGGTAATCCGTATTTGGA (site CACTTGGCTTC) , recombinant UMI read abundance (log10) reported as 0.0198

Lab note: measured recombinant UMI read abundance (log10) of GCTTGCGCATGGACCGGTTTTCCCGGTAATCCGTATTTGAT (site GCTTGCTCTAT) was 0

Summary for this sequence, AAGACTACATGGACCGGTTTTCCCGGTAATCCGTATTTGAC (site ATGACTACTGT) : recombinant UMI read abundance (log10) is 1.25

Given item TCCCATTCATGGACCGGTTTTCCCGGTAATCCGTATTTGCC (site TCCCATTCTGG) , the value recorded as its recombinant UMI read abundance (log10) is 0

Lab book: recombinant UMI read abundance (log10) of CCCTAGGCATGGACCGGTTTTCCCGGTAATCCGTATTTGCC (site CCCTAGCCTGG) noted as 0

Input CGGAATCCATGGACCGGTTTTCCCGGTAATCCGTATTTGTC (site CGGAATCCTAA) . Output recombinant UMI read abundance (log10): 0

For this sequence ( ACCCGTCCATGGACCGGTTTTCCCGGTAATCCGTATTTGAT (site AACCGTCCTAT) ), measured recombinant UMI read abundance (log10) is 0.00657

Value of recombinant UMI read abundance (log10) reported for the sequence GGGTACACATGGACCGGTTTTCCCGGTAATCCGTATTTGGC (site GGGTACACTGC) is 3.08

---

- PROCEDURE_TEXT: recombinant barcode read abundance after kanamycin selection (control-corrected) (log10(CPM+1)); higher = more efficient recombination; sequences stand for … in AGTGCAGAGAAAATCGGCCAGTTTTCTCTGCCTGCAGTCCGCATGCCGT…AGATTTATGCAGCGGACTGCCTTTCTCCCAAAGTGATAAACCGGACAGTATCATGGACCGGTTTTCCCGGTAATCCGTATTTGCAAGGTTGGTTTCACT; site = the 11-nt target
MEASURED_ENDPOINT: recombinant barcode read abundance (log10)
API note: the answer field is a bare number with no unit suffix.

Reported recombinant barcode read abundance (log10) for GTAAGTGCTTGGGTTCTAACCTGTTGCCT (site GTAATTGCTAG) was 0.187

recombinant barcode read abundance (log10) reported for this sequence CACCAATCTTGGGTTCTAACCTGTTGCCT (site CACGCATCTAG) : 0.269

// sample GTCGGTACTTGGGTTCTAACCTGTTGCCT (site GTCGGCACTAG) , its recombinant barcode read abundance (log10) was 0.0645

recombinant barcode read abundance (log10) reported for this sequence CTGATGACTTGGGTTCTAACCTGTTGCCT (site CTGATAACTAG) : 0.177

Memo: TTGACTGCTTGGGTTCTAACCTGTTGCCT (site TTGATTGCTAG) , reported recombinant barcode read abundance (log10): 0.0272

// TAGCATACTTGGGTTCTAACCTGTTGCCC (site TAGCATACTGG) : recombinant barcode read abundance (log10) value = 0.941

// sample CTATGCCCTTGGGTTCTAACCTGTTGCGA (site CTATGCCCTTC) , its recombinant barcode read abundance (log10) was 2.02

recombinant barcode read abundance (log10) reading for GTTGGCGCTTGGGTTCTAACCTGTTGCCT (site GTGGGCGCTAG) : 0.0363

Record TATGTACCTTGGGTTCTAACCTGTTGCCT (site GATGTACCTAG) , field recombinant barcode read abundance (log10): 0.101

The value of recombinant barcode read abundance (log10) measured for the sequence TAACGGCCTTGGGTTCTAACCTGTTGCCT (site TAACGGCCTAG) turned out to be 0.539
